Assay readout: melting point

Consider the following illustrative entries.
Using the record for CON1CCC2(CC1)C(O)=C(c1cc(Br)c(C)cc1C)C(=O)N2C , report its melting point. 182 to 183 °C

// repeat for CCOC(=O)OC1=C(c2c(C)cc(Cl)cc2C)C(=O)N(OC)C12CCN(OC)CC2 and report 122 to 125 °C

Proceed to CCOC(=O)OC1=C(c2cc(C)c(C)cc2Cl)C(=O)N(C)C12CCN(OC)CC2 149 to 150 °C

What do you have for CON1CCC2(CC1)C(O)=C(c1c(C)cc(Cl)cc1C)C(=O)N2OC1CCCO1 (stereo not drawn) ? 137 to 139 °C

Consider next the compound CON1CCC2(CC1)C(O)=C(c1cc(C)c(C)cc1Br)C(=O)N2C in the same way. 191 to 193 °C

Further cases:
Fill in: melting point of COCON1C(=O)C(c2c(C)cc(-c3ccc(Cl)cc3)cc2C)=C(O)C12CCN(OC)CC2 is ___ 128 °C (dec.)

Check COCON1C(=O)C(c2c(F)ccc(C)c2Cl)=C(O)C12CCN(OC)CC2 too. 155 to 158 °C

###

Assay readout: melting point

Study these solved cases before continuing.
What value of measured melting point is listed for CCOC(=O)OC1=C(c2c(C)cc(C)cc2C)C(=O)N(CC)C12CCN(OC)CC2 ? 101 to 103 °C

What would you report for CON1CCC2(CC1)C(O)=C(c1cc(C)ccc1C)C(=O)N2C ? 121 to 123 °C

Follow-up item: CON1CCC2(CC1)C(O)=C(c1cc(C)c(C)cc1C)C(=O)N2C 183 to 186 °C

Repeat for the following compound: COCON1C(=O)C(c2c(C)cc(Cl)cc2C)=C(O)C12CCN(OC)CC2 176 to 178 °C

Ok, now CON1CCC2(CC1)C(O)=C(c1c(C)cc(Cl)cc1C)C(=O)N2OC 88 to 92 °C

For CON1CCC2(CC1)C(O)=C(c1c(C)cc(C)cc1C)C(=O)N2CC1CC1 then? 223 to 225 °C

More entries:
So what does the record say about melting point for COCCON1C(=O)C(c2c(C)cc(Cl)cc2C)=C(O)C12CCN(OC)CC2 ? 161 to 164 °C

Further, for COCON1C(=O)C(c2cc(Br)c(F)cc2C)=C(O)C12CCN(OC)CC2 ? 64 to 67 °C

###

The following molecules are listed with their measured melting point values.

Sample records with melting point:
Recorded melting point for CON1CCC2(CC1)C(O)=C(c1c(C)cc(C)cc1C)C(=O)N2OCCOC1CCCCO1 (stereo not drawn) , please? 135 to 137 °C

Thanks! And CCOC(=O)OC1=C(c2cc(C)ccc2C)C(=O)N(C)C12CCN(OC)CC2 ? 96 to 110 °C

Note, next up: COCON1C(=O)C(c2cc(C)ccc2C)=C(OC(=O)CC(C)(C)C)C12CCN(OC)CC2 93 to 95 °C

Try this molecule too: CCN1C(=O)C(c2c(C)cc(C)cc2C)=C(O)C12CCN(OC)CC2 218 to 221 °C

Try the molecule CON1CCC2(CC1)C(O)=C(c1c(C)cc(C)cc1C)C(=O)N2OCC1CCCCC1 169 to 172 °C

Request: CON1CCC2(CC1)C(O)=C(c1cc(Br)c(C)cc1C)C(=O)N2OC 86 to 87 °C

Try this molecule too: CCOC(=O)OC1=C(c2cc(C)c(C)cc2Br)C(=O)N(C)C12CCN(OC)CC2 158 to 159 °C

Again, but for CON1CCC2(CC1)C(O)=C(c1cc(C)c(C)cc1Cl)C(=O)N2C 191 to 192 °C

More entries:
Sample COCCON1C(=O)C(c2cc(Br)c(F)cc2C)=C(O)C12CCN(OC)CC2 — what was its melting point? 71 to 74 °C

Here is the next molecule: CCOC(=O)OC1=C(c2c(F)ccc(C)c2Cl)C(=O)N(OCOC)C12CCN(OC)CC2 116 to 119 °C

Repeat for the following molecule: COCON1C(=O)C(c2cc(C)ccc2C)=C(OC)C12CCN(OC)CC2 91 to 93 °C

And COCCON1C(=O)C(c2cc(Br)c(C)cc2C)=C(O)C12CCN(OC)CC2 ? 63 to 64 °C

Reference source: patent US9018135B2
